Reference source: the supplement of paper PMC12338614

B1: library; numbered along this chain (parent)
chain: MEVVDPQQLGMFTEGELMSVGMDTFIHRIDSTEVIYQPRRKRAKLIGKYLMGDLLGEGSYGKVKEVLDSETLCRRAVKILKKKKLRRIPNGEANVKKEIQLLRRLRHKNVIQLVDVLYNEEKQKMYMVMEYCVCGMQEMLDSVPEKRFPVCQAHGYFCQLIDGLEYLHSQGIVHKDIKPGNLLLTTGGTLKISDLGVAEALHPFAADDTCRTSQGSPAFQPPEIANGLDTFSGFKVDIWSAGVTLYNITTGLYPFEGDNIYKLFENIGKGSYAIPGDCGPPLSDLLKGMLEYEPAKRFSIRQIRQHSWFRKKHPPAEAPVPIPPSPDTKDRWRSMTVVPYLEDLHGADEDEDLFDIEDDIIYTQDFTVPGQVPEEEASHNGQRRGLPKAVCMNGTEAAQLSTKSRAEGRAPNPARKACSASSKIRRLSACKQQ

Variants of: B1
Assay: STK11 functional score (HeLa growth suppression), rescaled enrichment; synonymous median = 1, nonsense median = 0 (normalised score)
Conditions: with HeLa; variant type: missense
Recorded STK11 functional score by entry
measured-metric: STK11 functional score

>>> value_reported("G279W")
1.06
>>> value_reported("L140G")
-0.0512
>>> value_reported("N226W")
1.65
>>> value_reported("Q399S")
0.903
>>> value_reported("S19A")
0.891
>>> value_reported("E375H")
1.24
>>> value_reported("S216M")
0.227
>>> value_reported("I99L")
0.855
>>> value_reported("D330V")
1.46
>>> value_reported("G279V")
0.88
>>> value_reported("R39G")
1.04
>>> value_reported("C158I")
1.51
>>> value_reported("K48A")
0.852
>>> value_reported("E293Q")
1.23
>>> value_reported("K235V")
0.794
>>> value_reported("D30L")
1.07
>>> value_reported("N247H")
1.26
>>> value_reported("K44Q")
1.24
>>> value_reported("L140R")
0.437
>>> value_reported("V95Y")
1.55
>>> value_reported("K416V")
1.39
>>> value_reported("V368R")
0.87
>>> value_reported("D162C")
1.28
>>> value_reported("E14D")
1.22
>>> value_reported("C278K")
1.57
>>> value_reported("K124W")
0.166
>>> value_reported("K122M")
1.25
>>> value_reported("V243N")
0.56
>>> value_reported("L400V")
1.41
>>> value_reported("I111Y")
0.97
>>> value_reported("I46V")
0.613
>>> value_reported("A153V")
0.499
>>> value_reported("P321F")
0.903
>>> value_reported("N181S")
-0.0295
>>> value_reported("P321D")
1.55
>>> value_reported("D350H")
1.27
>>> value_reported("E293R")
0.395
>>> value_reported("R86P")
1.3
>>> value_reported("I46H")
1.58
>>> value_reported("Q214L")
1.05
>>> value_reported("H107T")
1.02
>>> value_reported("P281T")
1.46
>>> value_reported("I35V")
0.925
>>> value_reported("Q112I")
1.52
>>> value_reported("L184R")
0.329
>>> value_reported("Y292R")
1.22
>>> value_reported("S240G")
1.05
>>> value_reported("P413D")
1.6
>>> value_reported("N412A")
1.53
>>> value_reported("S404N")
1.52
>>> value_reported("K96I")
1.08
>>> value_reported("V4S")
0.996
>>> value_reported("V95H")
1.64
>>> value_reported("I424R")
1.5
>>> value_reported("P149L")
0.561
>>> value_reported("Q170W")
1.17
>>> value_reported("A410W")
1.68
>>> value_reported("P222N")
1.61
>>> value_reported("K146R")
1.58
>>> value_reported("T367Y")
1.54
>>> value_reported("G155A")
1.27
>>> value_reported("K262W")
1.05
>>> value_reported("V372Y")
1.48
>>> value_reported("T186Y")
1.14
>>> value_reported("D355H")
1.11
>>> value_reported("N90T")
0.558
>>> value_reported("K416G")
1.55
>>> value_reported("G276T")
1.16
>>> value_reported("E138C")
0.386
>>> value_reported("G394M")
1.62
>>> value_reported("K423R")
1.17
>>> value_reported("T186S")
1.1
>>> value_reported("D229H")
0.539
>>> value_reported("N380C")
1.57
>>> value_reported("N412E")
1.52
>>> value_reported("L117A")
1.27
>>> value_reported("A318D")
1.51
>>> value_reported("A218V")
1.07
>>> value_reported("P321I")
1.53
>>> value_reported("K62W")
1.38
>>> value_reported("T249S")
1.24
>>> value_reported("L286I")
1.36
>>> value_reported("A205H")
1.33
>>> value_reported("S31W")
0.921
>>> value_reported("V3G")
1.47
>>> value_reported("S307P")
1.57
>>> value_reported("L400H")
1.42
>>> value_reported("R409K")
1.39
>>> value_reported("P254T")
0.929
>>> value_reported("T32P")
1.48
>>> value_reported("T212D")
1.48
